tested on: PPARg DBDmut IVT, anti-PPARg (DBD mutation: PPARg1 K132A/R137A, NR concentration 270 nM); test: PBM binding z-score (relative to random genomic background probes); higher = stronger binding; sequences stand for … in GC…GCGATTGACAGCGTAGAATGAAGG
MEASURED METRIC: PBM binding z-score
One number for each entry.

Study these solved cases before continuing.
Req: Report PBM binding z-score for `TAGCCTAGGTCAGCTCGGGCCAGTATACGCTATA`
Resp: -1.03

Req: Report PBM binding z-score for `CCTTACTGGTCACTCCAGGTTATAGCATCGGAGT`
Resp: 0.23

Req: Report PBM binding z-score for `GCGACTGGGGCTTCAGCAGGTTACCATAACTTAA`
Resp: -1.13

Req: Report PBM binding z-score for `CCTCGGAGGACAATAGGAGGTCAGAGCTGCCAGA`
Resp: -1.32

Okay, now this sequence:
Req: Report PBM binding z-score for `CCTTACGGGTCTCGAGGTTATAGCACGACGAGCG`
Resp: -0.982

----------
system: THRa:RXRa (NR concentration 90 nM, RXRa partner concentration 90 nM); experiment: PBM binding z-score (relative to random genomic background probes); higher = stronger binding; sequences stand for … in GC…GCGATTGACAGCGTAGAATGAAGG
MEASURED METRIC: PBM binding z-score
Answers are plain numbers.

Study these solved cases before continuing.
Req: Write PBM binding z-score of `TCTTGTAGATCATTAGAGGTTAAGAAAGTGCGCT` ; system used: THRa:RXRa (NR concentration 90 nM, RXRa partner concentration 90 nM)
Resp: 2.67

Req: Write PBM binding z-score of `CCTTACGGCTCACTGACAGGTTATAGCATTTGGA` ; system used: THRa:RXRa (NR concentration 90 nM, RXRa partner concentration 90 nM)
Resp: 0.0321

Here are 6 sequences. What values of PBM binding z-score were reported for them?
1. TCTTGTAGATCAACAGGAGGCTAAGAAAGATCGA
2. CGGCCTAGGTCAGGGCCAGTATAGGAGGAACGTT
3. AGACCGAGGGCACGCTGAGTTGATAGCAGAGTAG
4. TCTTGTAGATCCATAGAGGTTAAGAAAGTGCGCT
5. CCGAGTAGGTTATGGGGGATTCAGGCAACGGTGA
6. GGAACAAGGGCATTCGAGTTGATAGCATGGCGAT

Resp:
[-0.56, 1.8, 1.77, 1.07, 1.58, 3.16]

Here are 5 sequences. What values of PBM binding z-score were reported for them?
1. ATCTCTAGGTAAGAGTTCAGTGAATCCCGAGGAT
2. ACTATTAGTTGAGACGAGGGCAACCGGTAGGTTG
3. CCGTCTGGGGCAAAGGTTACCATACTCAGTACGA
4. ATTTCTAGGTAAGACTCAGTTCAGTGAAGAACGC
5. TCTGCTAGGTCAACGATAGTCAGCTAATCTGCTA

Resp:
[0.872, 2.69, 1.74, 0.941, 2.67]

Here are 7 sequences. What values of PBM binding z-score were reported for them?
1. CCTGCTAGGTCATAGTCAGCTAATCTACAGTATG
2. AGTCAAAGTTCATCTATGTAACGTAAGATATGCT
3. TCTTGTAGATCAAGCAGGTTAAGACAGCCTGAGT
4. CCTATGAGTTGACCATAAGGGCAACCGAAGCTCG
5. GCTGCTAGGTCAGCTGATGGTCAGCTAAAGCTCG
6. TTAATGAGGTTATAAGATCAGGGAACGTTGCAAA
7. TAGCCTAGGTCAGACCGGGCCAGTATACGCTATA

Resp:
[2.62, 1.92, 0.23, 2.49, 1.83, 2.04, 3.99]

Req: Write PBM binding z-score of `CCTACTAGGCCAAAAAGGTCATTGATGCCGATAA` ; system used: THRa:RXRa (NR concentration 90 nM, RXRa partner concentration 90 nM)
Resp: 3.35
